- subjectOfTest: T1, hPD-1-his (human, UniProt Q15116 25-167)
- T1 construct: domain: IgV domain; monomer in solution; biotin-labelled where captured by streptavidin; also called biotin-hPD-1-his
- assayRemarks: ELISA, captured hPD-1-his
Quick rule for you: OD at 10 nM at 0.3 OD450 or higher means true, lower means false.

INSERT INTO assay_data (binder, grouplabel) VALUES
  ('23A11 (antibody, human IgG1, V domains shown) VH: QVQLVQSGAEVKKPGSSVKVSCKASGYTFTDYSLHWVRQAPGQGLEWMGEVIPMFDTAYYAQTFQGRVTITADESTSTAYMELSSLRSEDTAVYYCAREPFTMVRGGRYYYYGMDVWGQGTTVTVSS VL: DIQMTQSPSSLSASVGDRVTITCRASQNINKNLNWYQQKPGKAPKLLIYDASNLQSGVPSRFSGSGSGTDFTLTISSLQPEDFATYYCQHSETFGQGTKVEIK', 'false'),
  ('24H9 (antibody, human IgG1, V domains shown) VH: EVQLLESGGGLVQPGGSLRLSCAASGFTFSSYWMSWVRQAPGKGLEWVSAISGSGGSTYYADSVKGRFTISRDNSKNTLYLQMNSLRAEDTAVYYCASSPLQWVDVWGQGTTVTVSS VL: DIQMTQSPSSLSASVGDRVTITCRASQGISSWLAWYQQKPGKAPKLLIYSASSLQSGVPSRFSGSGSGTDFTLTISSLQPEDFATYYCQQANSFPFTFGPGTKVDIK', 'true'),
  ('19B10 (antibody, human IgG1, V domains shown) VH: EVQLLESGGGLVQPGGSLRLSCAASGFTFSSYAMHWVRQAPGKGLEWVSGISNSGGNTYYADSVKGRFTISRDNSKNTLYLQMNSLRAEDTAVYYCARDNYYYYMDVWGKGTTVTVSS VL: DIQMTQSPSSLSASVGDRVTITCRASQSVSTWLAWYQQKPGKAPKLLIYAASNLETGVPSRFSGSGSGTDFTLTISSLQPEDFATYYCQQTYSTPYTFGQGTKLEIK', 'true'),
  ('23A8 (antibody, human IgG1, V domains shown) VH: EVQLLESGGGLVQPGGSLRLSCAASGFTFSSSAMHWVRQAPGKGLEWVSGISGSGSSTYYADSVKGRFTISRDNSKNTLYLQMNSLRAEDTAVYYCARDNNYYYYMDVWGKGTTVTVSS VL: DIQMTQSPSSLSASVGDRVTITCRASQSIGTWLAWYQQKPGKAPKLLIYAASTLRSGVPSRFSGSGSGTDFTLTISSLQPEDFATYYCQQSYSTPYTFGQGTKLEIK', 'true');
